# Assayed target: Protein-glutamine gamma-glutamyltransferase (Homo sapiens) (UniProt P21980)
# Assay method text: Inhibition of TG2 (unknown origin) using Cbz-Glu(gamma-p-nitrophenyl ester)Gly (AL5) as substrate and measured by colorimetric assay
Measured attribute: Kinact (min⁻¹)

{"columns": ["Compound", "Readout unit", "Numeric value"],
 "data": [
  ["C=CC(=O)NCCCC[C@H](NC(=O)c1cn(C)cn1)C(=O)N1CCN(C(=O)c2cccc3ccccc23)CC1", "min⁻¹", 0.46],
  ["C=CC(=O)NCCCC[C@H](NC(=O)Cc1ccc(F)cc1F)C(=O)N1CCN(C(=O)c2cccc3ccccc23)CC1", "min⁻¹", 0.62],
  ["C=CC(=O)NCCCC[C@H](NC(=O)CC(C)C)C(=O)N1CCN(C(=O)c2cccc3ccccc23)CC1", "min⁻¹", 0.64],
  ["C=CC(=O)NCCCC[C@H](NC(=O)c1ccncc1)C(=O)N1CCN(C(=O)c2cccc3ccccc23)CC1", "min⁻¹", 0.24],
  ["C=CC(=O)NCCCC[C@H](NS(C)(=O)=O)C(=O)N1CCN(C(=O)c2cccc3ccccc23)CC1", "min⁻¹", 0.57],
  ["C=CC(=O)NCCCC[C@H](NC(=O)c1cccc(F)c1)C(=O)N1CCN(C(=O)c2cccc3ccccc23)CC1", "min⁻¹", 0.64]
]}

1. C=CC(=O)NCCCC[C@H](NC(=O)C1C2CC3CC(C2)CC1C3)C(=O)N1CCN(C(=O)c2cccc3ccccc23)CC1 (stereo partly drawn)
2. C=CC(=O)NCCCC[C@H](NC(=O)c1cccnc1)C(=O)N1CCN(C(=O)c2cccc3ccccc23)CC1
stdin: // which entry has the larger Kinact value, 1 or 2 ? Provide the label of your selected option as the answer.
stdout: 2
(2: 0.59 min⁻¹, 1: 0.23 min⁻¹)

* * *

# Assayed target: Protein-glutamine gamma-glutamyltransferase (Homo sapiens) (UniProt P21980)
# Sequence (whole entry): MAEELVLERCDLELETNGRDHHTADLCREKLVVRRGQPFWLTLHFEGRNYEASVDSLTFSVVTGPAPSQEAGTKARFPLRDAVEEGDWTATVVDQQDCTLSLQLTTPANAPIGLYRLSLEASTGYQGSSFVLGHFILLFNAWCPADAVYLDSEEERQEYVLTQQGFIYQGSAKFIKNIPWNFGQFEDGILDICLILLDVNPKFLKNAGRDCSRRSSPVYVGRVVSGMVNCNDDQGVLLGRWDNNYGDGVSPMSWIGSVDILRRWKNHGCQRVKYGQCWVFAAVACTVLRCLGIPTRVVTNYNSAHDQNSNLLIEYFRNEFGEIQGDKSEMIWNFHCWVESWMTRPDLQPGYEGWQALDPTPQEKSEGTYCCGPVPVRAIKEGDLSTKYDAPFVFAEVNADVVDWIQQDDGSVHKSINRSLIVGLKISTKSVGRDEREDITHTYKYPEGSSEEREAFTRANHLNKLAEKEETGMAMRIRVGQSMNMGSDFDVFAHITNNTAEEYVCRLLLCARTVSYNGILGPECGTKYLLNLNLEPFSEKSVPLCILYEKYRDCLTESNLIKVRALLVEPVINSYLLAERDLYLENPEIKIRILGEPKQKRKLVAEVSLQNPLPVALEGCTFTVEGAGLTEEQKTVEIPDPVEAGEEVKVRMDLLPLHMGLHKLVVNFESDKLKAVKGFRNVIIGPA
# Assay method text: Inhibition of TG2 (unknown origin) using Cbz-Glu(gamma-p-nitrophenyl ester)Gly (AL5) as substrate and measured by colorimetric assay
Measured attribute: Kinact (min⁻¹)

{"columns": ["Smiles code", "Assayed target", "Readout unit", "Kinact"],
 "data": [
  ["C=CC(=O)NCCCC[C@H](NS(=O)(=O)CC)C(=O)N1CCN(C(=O)c2cccc3ccccc23)CC1", "Protein-glutamine gamma-glutamyltransferase (Homo sapiens) (UniProt P21980)", "min⁻¹", 0.83],
  ["C=CC(=O)NCCCC[C@H](NC(=O)c1nccn1C)C(=O)N1CCN(C(=O)c2cccc3ccccc23)CC1", "Protein-glutamine gamma-glutamyltransferase (Homo sapiens) (UniProt P21980)", "min⁻¹", 0.18],
  ["C=CC(=O)NCCCC[C@H](NC(=O)Cc1ccccc1Br)C(=O)N1CCN(C(=O)c2cccc3ccccc23)CC1", "Protein-glutamine gamma-glutamyltransferase (Homo sapiens) (UniProt P21980)", "min⁻¹", 3.1],
  ["C=CC(=O)NCCCC[C@H](NC(=O)CC)C(=O)N1CCN(C(=O)c2cccc3ccccc23)CC1", "Protein-glutamine gamma-glutamyltransferase (Homo sapiens) (UniProt P21980)", "min⁻¹", 0.53],
  ["C=CC(=O)NCCCC[C@H](NC(=O)c1ccc(F)cc1)C(=O)N1CCN(C(=O)c2cccc3ccccc23)CC1", "Protein-glutamine gamma-glutamyltransferase (Homo sapiens) (UniProt P21980)", "min⁻¹", 0.9]
]}

a. C=CC(=O)NCCCC[C@H](NC(=O)c1ccccn1)C(=O)N1CCN(C(=O)c2cccc3ccccc23)CC1
b. C=CC(=O)NCCCC[C@H](NC(=O)Cc1ccccc1C(F)(F)F)C(=O)N1CCN(C(=O)c2cccc3ccccc23)CC1
stdin: # argmax over Kinact for candidates a and b Your choice should be expressed through its label.
stdout: b
